test system: P12-Ichikawa; assay: cell viability relative to DMSO control; higher = less cytotoxic; conditions: RPMI 5 mM glucose + 10% dialyzed FBS; 48 h; 15.4 µM
Labels assigned by cell viability range: I: < 60%; II: ≥ 60% and < 80%; III: ≥ 80%

**Query** Looking at "N[C@@H]1CONC1=O" , which class would you pick?
**Result** III

**Query** Follow-up item: "O=C(O)c1cc(/N=N/c2ccc([S+](=O)([O-])Nc3ccccn3)cc2)ccc1O"
**Result** III

**Query** Follow-up item: "COc1cccc2c1C(=O)c1c(O)c3c(c(O)c1C2=O)C[C@@](O)(C(=O)CO)C[C@@H]3O[C@H]1C[C@H](N)[C@H](O)[C@H](C)O1"
**Result** I

**Query** Follow-up item: "O=C(O)C(=O)c1cn(Cc2ccccc2)c2ccc(-c3ccc(OC(F)(F)F)cc3)cc12"
**Result** III

**Query** Follow-up item: "Cc1coc2c1C(=O)C(=O)c1c-2ccc2c1CCCC2(C)C"
**Result** III

**Query** Follow-up item: "CN(C)CC(C)(C)CNc1nn2c(-c3ccccc3)nnc2cc1C1CCC1"
**Result** II

**Query** Follow-up item: COc1ccc(C(=O)CC2(O)C(=O)Nc3c(Cl)ccc(Cl)c32)cc1 (stereo not drawn)
**Result** I

**Query** Follow-up item: "COc1c(C)c2c(c(O)c1C/C=C(\C)CCC(=O)O)C(=O)OC2"
**Result** I

**Query** Follow-up item: "CN1\C=N/C2=CC=C(NC3=CC(=CC=C3C)NC(=O)C4=CC(=CC=C4)C(C)(C)C#N)C=C2C1=O"
**Result** II

**Query** Follow-up item: "CCCCOCCOc1nc(-c2ccc(C(=O)O)c(F)c2)sc1C"
**Result** III

**Query** Follow-up item: "COc1cc2c(cc1OC)CN(CCc1ccc(NC(=O)c3cc(OC)c(OC)cc3NC(=O)c3cnc4ccccc4c3)cc1)CC2"
**Result** I

**Query** Follow-up item: "CC(C)(O)CC(=O)NCCn1ccc2ncnc(Nc3ccc(Oc4cccc(C(F)(F)F)c4)c(Cl)c3)c21"
**Result** II

**Query** Follow-up item: "C[C@]12CC[C@H]3[C@@H](CCC4=CC(=O)CC[C@@H]43)[C@@H]1CC[C@@H]2OC(=O)CCc1ccccc1"
**Result** III

**Query** Follow-up item: CCCCCNC(=O)N1CCC(CN(Cc2ccc(Cl)cc2)Cc2ccc([N+](=O)[O-])s2)C1 (stereo not drawn)
**Result** III

**Query** Follow-up item: O=C(c1ccccc1)c1ccc2n1CCC2C(=O)O (stereo not drawn)
**Result** I

====

tested on: P12-Ichikawa; experiment: cell viability relative to DMSO control; higher = less cytotoxic; details: HPLM + 10% dialyzed FBS; 48 h; 0.00234 µM
Exercise: for every item that follows, state its recorded cell viability.
Write down the value, and be sure its unit follows.

**Query** // lookup cell viability for "COC(=O)c1ccc2c(c1)NC(=O)/C2=C(\Nc1ccc(N(C)C(=O)CN2CCN(C)CC2)cc1)c1ccccc1"
**Result** 109%

**Query** Follow-up item: O=C(CCCN1CCN(c2ccc(F)cc2)CC1)NC1c2ccccc2CSc2ccccc21 (centres undefined)
**Result** 125%

**Query** Follow-up item: "CC(C)c1cc(C(C)C)c(CC(=O)N[S+](=O)([O-])Oc2c(C(C)C)cccc2C(C)C)c(C(C)C)c1"
**Result** 106%

**Query** Follow-up item: "Cc1coc2c1C(=O)C(=O)c1c-2ccc2c1CCCC2(C)C"
**Result** 106%

**Query** Follow-up item: "C=CC(=O)Nc1cc2c(Nc3ccc(F)c(Cl)c3)ncnc2cc1OCCCN1CCOCC1"
**Result** 132%

**Query** Follow-up item: "Nc1ncnc2c1ncn2[C@@H]1O[C@H](CO)C[C@H]1O"
**Result** 96.4%

**Query** Follow-up item: "CC1=CC(=CC(=C1C\C2=N\CCN2)C)C(C)(C)C"
**Result** 105%

**Query** Follow-up item: "CN(C)CC(C)(C)CNc1nn2c(-c3ccccc3)nnc2cc1C1CCC1"
**Result** 103%

**Query** Follow-up item: "COc1cc[nH]c2ncc(C(=O)C(=O)N3CCN(C(=O)c4ccccc4)C[C@H]3C)c1-2"
**Result** 112%
